Measured Target: FRMPD3, Q5JV73
Sequence (Q5JV73 12-100): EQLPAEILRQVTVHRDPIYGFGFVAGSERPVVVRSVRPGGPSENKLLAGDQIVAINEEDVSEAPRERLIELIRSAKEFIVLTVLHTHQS
Protocol Notes: holdup assay
Parameters: key: below the threshold = too weak to quantify, mostly under pKd 3.1 to 4
Measurement Parameters: plain residues with an end cap or a label only (N-terminal biotin on a linker: ado-ado)

# Binder, pKd
rows = [
    ("SSALYGESDL [ACTN2, P35609]", "below the threshold"),
    ("RRLPGKETMA [GRIK2, Q13002]", "below the threshold"),
    ("VRNLPESEEL [MYOZ3, Q8TDC0]", "below the threshold"),
    ("DTTVPESEDL [MYOZ2, Q9NPC6]", "below the threshold"),
    ("SGSLKLMTTV [DACT1, Q9NYF0]", "below the threshold"),
    ("LKVPPEERLI [CRB2, Q5IJ48]", "below the threshold"),
    ("EVEEFPETSV [TRPV3, Q8NET8]", 3.59),
    ("CLREWCDAFL [BANF1, O75531]", 3.66),
    ("SNAGNTATKA [NOSTRIN, Q8IVI9]", "below the threshold"),
    ("HLRARKSEWV [GJD4, Q96KN9]", "below the threshold"),
    ("SKSNFGSEPL [KIF17, Q9P2E2]", "below the threshold"),
    ("DDEDRLVIEI [ZNF831, Q5JPB2]", "below the threshold"),
    ("LGRSTPQSEV [DGKH, Q86XP1]", "below the threshold"),
    ("QSARLWETSI [ADAM22, Q9P0K1]", "below the threshold"),
    ("PRISRSQSEL [CCDC134, Q9H6E4]", "below the threshold"),
    ("QPCFNKLFPL [LPXN, O60711]", "below the threshold"),
    ("RHGSCVETSL [TMEM151B, Q8IW70]", 3.5),
    ("TPPAAKKSRI [BAZ1A, Q9NRL2]", "below the threshold"),
    ("IPLDGETEEL [MYOZ1, Q9NP98]", "below the threshold"),
    ("PKRSFIESNV [TANC1, Q9C0D5]", "below the threshold"),
    ("LSEFKAMDSI [CTNNA1, P35221]", "below the threshold"),
    ("TKGPRGPTRV [SAPCD1, Q5SSQ6]", "below the threshold"),
    ("QKNRKAQEDL [CES3, Q6UWW8]", "below the threshold"),
    ("GSGAVEMESV [AQP6, Q13520]", "below the threshold"),
    ("DDENIRTSDV [PLEKHA2, Q9HB19]", "below the threshold"),
    ("NLSIEKETKL [ASNSD1, Q9NWL6]", "below the threshold"),
    ("EKKTLIGIKL [GOT1L1, Q8NHS2]", "below the threshold"),
    ("RRRESYSTTV [EVI5, O60447]", "below the threshold"),
    ("PEYLGLDVPV [ERBB2, P04626]", 3.78),
    ("SAKVRTVTSV [RASL11B, Q9BPW5]", "below the threshold"),
    ("TSQESEDTYL [TBC1D10A, Q9BXI6]", 4.39),
    ("YLEPVLSSEL [ATP2A2, P16615;P16615-3]", "below the threshold"),
]

These data points were gathered from paper PMC9482650.
